Assay: yeast display, Sf9 membrane polyspecificity reagent, FACS + sequencing; frameworks hold sequencing errors
Property name: polyreactivity (PSR sort gate)

QVQLVESGGVLVQAGGSLRLSCAASGRIFSSYAMGWNRHAPGKERELVATSRRADSTYYADSVKGRFTISRDNAKNTVYLQMNSLKPEDTAVYYCAADTRLSRLIHRYDYWGQGTQVTVSS low polyreactivity
QVQLVETGGGLVQAGGSLRLSCAASGIIFSRYAMGWYRQAPGIERELVASITGRVGSTYYADSVKGRFTISRDNAKNTVYLQMNRLKPEDTAVYYCAADYGYKFDYWGQGTQVTVSA low polyreactivity
QVQLVESGAGLVQAGGSLRLSCAASGSIFYDYAMGVYRQAPGKERELVAAISSSGITYYADSVKGRFTISRDNAKNTVYLQMNSLKPVDTAVYYCNARSYLRDYYYWGQGTQVTVSS high polyreactivity
QVQLVESGGGLVQAGGSLRLSCAASGRTFFRYVMGWYRQAPGKERELVAAISRSGGSTYYADSVKGRFTISRDNAKITVYLQMNSLKTEDTAVYYCNSVARSTVVPTEFDYWGQGTQVTVSS high polyreactivity
QVQLVESGGGLVQAGGSLRLSCAASGIIFNHYAMGWYGQAPGKERELVAAISRRGGSTYDADSVKGRFTISRDNAKNTVYLQMNSLKPEDTAVYYCNDRSFATGSKVPARGYWGQGTQVTVSS high polyreactivity
QVQLVESGGGLVQAGGSLRLSSAASGITFCRNTMGWYRQAPGKERELVAAIDSGGNTYADSVKGRFTISRDNAKNTVNLHINSLKPEYTAVYYCAKDSGPRGSYGYAFDSWGQGTQVTVSS low polyreactivity
QDQLVESGGGLVQAGGSLRLSCAASGSTFVDNAIGWYRQAPGKERELVAAISRGGSTHYADSVKGRFTISRDNAKNTVYLQMNSLKPEDTAVYYCAAVIDSREEYWGQGTQVTVSS high polyreactivity
QVQLVESGGGLVQAGGSLRLSCAASGFTFSVNAMVWYRQAPGKERELVAAISSRGSITYYADSVKGRFTISRDNAKNTVYLQMNSLKPEDTAVYYCAAKPLTGSSWEDYYWGQGTQVTVSS high polyreactivity
QVQLVESGGGLVQAGGSLRLSCAASGSIFFNNAMGWYRQAPGKERELVAAITTGGSTYYADSVKGRFTISRDNAKNTVYLQMNSLKPEDTAVYYCAAVVVYPYRLGYDYWGQGTQVTVSS low polyreactivity
QVQLVESGGGLVQAGGSLRLSCAASGRTFGYNAMGWYRQAPGTERELVAGITGTGGTTNYADSVKGRFTISRDNAKNTVYLQMNSLKPEDTAVYYCNKDYDVSSEKEPLGYWGQGTQVTVSS low polyreactivity
QVQHVESGGGLVQAGGSLRLSCAASGGIFYYYAMGWYRPAPGKERELVATISNGGSTYYADSVKGRFTISRDNAKNTVYLQMNSLNPEDTAVYYCAARDGRQPRGYRLVTYYAPMYYWGQGTQVTVSS high polyreactivity

---

Experiment: yeast display, Sf9 membrane polyspecificity reagent, FACS + sequencing; frameworks hold sequencing errors
Property name: polyreactivity (PSR sort gate)

QDQLGDSGGCLVQAGGSLRLSCAASGITFKNYAMVWYRQAPGKEREIVAAISASGGRTYYADSVKGRFTISRDNAKNTVYFPMNSLIPEDTAVYYCNAVYIGSRSRYEYDYWGQGSQVTVSS high polyreactivity
QVQLQESGGGLLQAGGSLRLSCAASGIIFDNPNKGWYRQAPGKERDLVATINSGATTNYADSVKGRFTISRDNAKNTVYLQMNSLIPVDTAVYYCAVDLSPTYFYYWGQGTQVTVSS high polyreactivity
QVQLVESGGGLVQAGGSLRLSCAASGLTFVYYAMGWFRQAPGKERELVAAISRGGTTYYADSVKGRFTISRDNAKNTVYLQMNSLKPEETAVYYCNAARYGFGSAYDYWGQGTQGTVSS high polyreactivity
QVQLVESGGGLVQAGGSLRLSCAPSGRTFGYNGRGWSRQEPGKESELVAAINSGGNTNYADSVKGRFTISRDYAKNTVYLQMNSLKPEDTAVYYCAKYGTLFEPVPNEYDYWGQGTQVTVSS low polyreactivity
QVQLVESGGGLVHAGGSLRLSCAASGSTFYSNTMGWYRQAPGKERELVAAIDTSGDSTNYADSVKGRFTISRDNAKNTVYLQMNSLKPEDTAVYYCNRRVSDRAFPFNYWGQGTQVTVSS low polyreactivity
QVQLVESGGGLVQAGGSLRLSCAASGFIFLYYAMGWYRQAPGKERELVAAISSSGGSTYYADSVKGRFTISRDNAKNTVYLQMNSLKPEDTAVYYCAARRKGKARVPQYDYWGQGTQVTVSS high polyreactivity
QVQLVESGGGLVHAGGSLRLSCAASGFTFSYYAMVWYREAPGKEREFVAAISRSGGSTYYADSVKGRFTISRDNAKNTVYLQMNSLYPVDTAVYYCATELSYRHGYWGQGTQVSVSS high polyreactivity
PDQLVESGGGLVQAGGSLRLSCAASGLNFYDNMGWYIQATGKERELVSAISSSGGSTSYADSVKGRFTISRDNAKNTVYLQMNSLKPEDTAVYYCAADSSPAYLGFVGFDYWGHGTQVTVSS low polyreactivity
QVQLVESGGGLVQAGGSLRLSCAASGSIIGLYVMGWYRQAPGKERELVAAISWSGGSTYYADSVKGRFTISRDNAKNTVYLQMNSLKPEDTAVYYCAARVYSVADYYYWGQGTQVTVSS low polyreactivity
QVQLVESGGGLVQAGGSLRLSCAASGRTFESYVMGWYRQAPGKESELVAAISNGGSTNYADSVKGRFTISRDNAKNTVYLQMNSLKPEDTAVYYCAVRVSGPRGYDYEYWGQGTQVTVSS low polyreactivity
QVQLVESGGGLVQAGGSLRLSCAASGFTFYRYAMGWYRQAPGKERELVAAITGGGSTYYADSVKGRFTISRDNAKNTVYLQMNSLKPEDTAVYYCNADIRAYTVLTGGYIYDYWGQGTQVTVSS high polyreactivity
QVQLVESGGGLVQAGGSLRLSCAASGGTIAPYAMGWSRQAPGKERELVATISYSGTSTNYADSVKGRFTISRDNAKNTVYLQMNSLKPEDTAVYDCAKRYHQYRWRGWLWGFDYWGQGNQVTVSS high polyreactivity
QVQLVESWGGLVQEGGSLRLSCAASGSTFGPYAMGWYRQAPGKERELVAAITESGDSTYYADSVKGRFTISRDNAKNSVYLQMNSLKPEDTAVYYCAATRGSSEYYYWGQGTQVTVSS low polyreactivity
QVQLVESGGGLVQAGGSLRLSCAASGSIFDAYAMGWYRQAPGKERELVAAITTGGGSTYYADSVKGRFTISRDTAKNTVYLQMNSLKPEDTAVYYCARDYGKYKGYYWGQGTQVTVSS low polyreactivity
QVQLVESGGGLVKAGGSLRLSCADSGRTFYINAMGWYRQAPGKERELVAAISNYGSSTYYADTVKGRFTISRDNAKYTVYLLMISLKPVDSAVYYCAASYGYGGDYDYWGQGTQGTVSS high polyreactivity
QVQLVESGGGLVQAGGSLRLSCAASGFTFFTNAMGWYRQAPGKEREFVAAISKSGSRTYYADSVKGRFTISRDNAKNTVYLQMNSLKPEDTAVYYCAAGYVTLFGFYRYYLWGQGTQVTVSS high polyreactivity
QVQLVESGGGLVQAGGSLRLSCAASGRTLRSYAMGWYRQAPGKERELVARISSGGSTTYADSVKGRFTISRDNAKNTVYLQMNSLKPEDTAVYYCNAQLVYTVYRLRYYHWGQGTQVTVSS high polyreactivity
QVQRVESGGGIVQAGGTLRLSCAASLRIKDNVMGRYIQAHGKERELVAAITRSAGRTYYADSVKGRFTISRDNAKYTVYLQKNSLKPEDTALYYCAAHAERYGYEYWGQGTQVTVSS low polyreactivity
QVQRVESGGGLVQAGGSLRLSSASSGFTFRSYAMGWYRQEPGKERELVAVIASSGGSTYYADSVKGRFTFSRDNAKNTVYLQMNSLKPEDTAVYYCNRRPATRAYLYDYWGQGTQVTVSW high polyreactivity
QVQLVESGGGLVQAGGSLRLSCAASGRTIDSNAMGWYRQAPGKERELVAAISSDGGSTYYADSVKGRFTISRDNAKNTVYLQMNSLKPEDTAVYYCNKDDPVDGPLYFRKYDYWGQGTQVTVSS low polyreactivity
QVQLVESGGGLVQAGGSLRLSCAASGSTSDSNAMGWSRQAPGKERELVAAITYSGDSTYYAYSVKGRFTISRDNAKNTVYLQMNSLKPEDTAVYYCATETYPSYEVDYWGQGTQVTVSS low polyreactivity
